Experimental target: T1, cTnI quality control product recombinant protein (human, UniProt P19429 2-210, limits assumed)
T1 construct: treated as the same molecule; also called cTnI antigen; cardiac troponin I
T1 sequence (P19429 2-210 limits assumed): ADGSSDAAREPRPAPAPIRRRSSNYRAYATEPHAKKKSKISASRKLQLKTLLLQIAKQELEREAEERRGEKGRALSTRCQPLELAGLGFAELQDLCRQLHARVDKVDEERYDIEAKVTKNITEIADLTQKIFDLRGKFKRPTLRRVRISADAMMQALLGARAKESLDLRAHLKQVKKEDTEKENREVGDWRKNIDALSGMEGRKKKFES
Assay text: AMC sensor, antibody immobilised, cTnI in solution
Item-by-item account of koff
Please respond with the number in s⁻¹ and leave the unit unwritten.

Mutation 1-37 (antibody, V domains shown, Built as m8) VH: EVQLQQSGPELVKPGASVKMSCKASGYTFTIYVLHWVKQKPGQGLEWIGYINPYLDGTKYNEKFKGKATLTVDKSSSTAFMELSSLTSEDSAVYYCARSGYGNYGLAWLAYWGQGTLVTVSA VL: QAVVIQESALTTSPGETVTLTCRSSTGAVTTSQYANWVQEKPDHLFTGLIGGSQNRAPGVPARFSGSLIGDKAALTITGAQTEDEAIYFCALVYSNQWVFGGGTKLTVLG ... 0.000208
Mutation 1-1 (antibody, V domains shown, built as m3) VH: EVQLQQSGPELVKPGASVKMSCKASGYTFTIYVLHWVKQKPGQGLEWIGYIQPYIDGTKYNEKFKGKATLTVDKSSSTAFMELSSLTSEDSAVYYCARSGYGNYGLAWLAYWGQGTLVTVSA VL: QAVVIQESALTTSPGETVTLTCRSSTGAATTSNYANWVQEKPDHLFTGLIGGSQNRAPGVPARFSGSLIGDKAALTITGAQTEDEAIYFCALVYSNQWVFGGGTKLTVLG ... 0.000712

# context switch: different binder, same koff
Return reported koff; argument: Mutation 1-16 (antibody, V domains shown, Built as m8) VH: EVQLQQSGPELVKPGASVKMSCKASGYTFTLYVLHWVKQKPGQGLEWIGYINPYLDGTKYNEKFKGKATLTVDKSSSTAFMELSSLTSEDSAVYYCARSGYGNYGLAWLAYWGQGTLVTVSA VL: QAVVIQESALTTSPGETVTLTCRSSTGAATTSQYANWVQEKPDHLFTGLIGGSNNRAPGVPARFSGSLIGDKAALTITGAQTEDEAIYFCALVYSNHWVFGGGTKLTVLG
0.000222

Hello, the source for this data is patent US20220033484A1, in case you need it.
